# protocol.details: Human HepG2 cell viability assay in 384 well format
# Format: toxicity, cell-based
# Set-up: dose 125 nL, time 70.5 hour; concentration not given beside the values
# conditions.used: HepG2 cells, read-out: Inhibition
The following compounds are shown together with reported cytotoxicity at 70.5 h values.
value.type: cytotoxicity at 70.5 h

| compound | value.type | meas.value |
| --- | --- | --- |
| O=C(c1ccoc1)N(Cc1cccnc1)C1CC1 | cytotoxicity at 70.5 h | -21.3% |
| Cn1cc(-c2ncnc3c2CCN(C(=O)N2CCOCC2)CC3)cn1 | cytotoxicity at 70.5 h | -5.18% |
| Cc1ccc(S(=O)(=O)NC2CCC(=O)NC2)cc1Br (configuration not stated) | cytotoxicity at 70.5 h | -4.2% |
| CCOc1ccc(Cl)c(C(=O)NCCC(=O)Nc2ccccn2)n1 | cytotoxicity at 70.5 h | -6.63% |
| O=S(=O)(NCCn1ccc(-c2ccncc2)n1)C1CC1 | cytotoxicity at 70.5 h | 0.267% |
| COCCC(=O)NCc1cccnc1-n1cnc2ccccc21 | cytotoxicity at 70.5 h | 6.94% |
| COc1cccc([C@@H]2CCN(Cc3[nH]nc(C)c3Cl)C[C@H]2O)c1 | cytotoxicity at 70.5 h | -22.1% |
| O=C(Nc1nccs1)C1CCCN1Cc1ccccn1 (configuration not stated) | cytotoxicity at 70.5 h | -5.74% |
| Cc1nn(C)c(N(C)C)c1CNC1CCc2c(Cl)cccc21 (configuration not stated) | cytotoxicity at 70.5 h | -1.83% |
| CN(Cc1ccccc1Br)C(=O)Cn1nc(-c2ccc(F)cc2)oc1=O | cytotoxicity at 70.5 h | -8.06% |
| COc1cccc(CN2CCc3nc(C(=O)NCC(C)C)sc3CC2)c1 | cytotoxicity at 70.5 h | 10.6% |
| CC1c2ncc(COCC3CC3)n2CCN1C(=O)c1ccnn1C (configuration not stated) | cytotoxicity at 70.5 h | -10.2% |
